The values you see were collected from patent US20210040232A1.

target desc: T1, soluble human CTLA-4 expressed with a C-terminal myc-myc-polyhistidine tag (human)
T1 construct: soluble protein; also called hCTLA-4.mmh; hCTLA4.mmh
T1 sequence (chain, as listed by the source limits assumed): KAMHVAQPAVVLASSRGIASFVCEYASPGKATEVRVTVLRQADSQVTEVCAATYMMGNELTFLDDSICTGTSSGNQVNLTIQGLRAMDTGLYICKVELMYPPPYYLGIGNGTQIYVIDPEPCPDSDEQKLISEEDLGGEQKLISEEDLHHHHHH
protocol text: SPR, mAb capture, 25 C
Please respond with reported t1/2 for every item in the list.

Worked set:
H1H20372N (antibody, human IgG1, V domains shown, here with human IgG1 Fc (H1H)) VH: EVQLVESGGGLVQPGRSLRLSCAGTGFIFDDYAMHWVRQAPGKGLEWVSGISWNSNSLGYADSVKGRFTISRDNAKKSLYLQMSSLRAEDTALYYCVKDVTRLELRGFLDYWGQGTQVTVSS VL: DIQMTQSPSSLSASVGDRVTITCRASQDIRNDLGWHQQKSGKAPKSLIYAASSLQSGAPSRFSGSGSGTEFTLTISSLQPEDSATYYCLQQNSYPPTFGQGTKVEIK
31.5 min
H1H19269P (antibody, human IgG1, V domains shown) VH: EVQLVESGGGLVQPGGSLKLSCAASGFTFSGSAMHWVRQASGKGLEWVGRIRGKANSFATAYSASVKGRFTISRDDSKNTASLQMNSLRTEDTAVYFCTREDQQLVRPYYYHYGMDVWGQGTTVTVSS VL: DIQMTQSPSSLSASVGDRVTITCRTSQSITNYLNWYQQKPGKAPKLLIYATASLQSGVPSRFSGSGSETDFTLTISSLQPEDFATYYCQQSYSTPLTFGGGTKVEIK
24.4 min
H1H20370N (antibody, human IgG1, V domains shown, here with human IgG1 Fc (H1H)) VH: QVQLHESGPGLVKPSQTLSLTCSVSGGSISNGGYYWSWIRQHPGQGLEWIGYIYYIGNTYYNPSLESRVTMSIDTSKNQFSLKLSSVTAADTAIYYCARQEFVPGAEYFLHWGQGILVTVSS VL: DIRMTQSPSSLSASVGDRVTITCRASQTVNTFLNWYQQKPGKAPKLLIFGASSLQSGVPSRFSGSGSGTDFTLTISGLQPEDFAIYYCQQSYSVPPITFGQGTRLEIE
19.6 min
H1H20361N (antibody, human IgG1, V domains shown, here with human IgG1 Fc (H1H)) VH: QVQLQESGPGLVKPSQTLSLTCTVSGGSINNGGHYWTWIRQHPGKGLEWIGYIYYIGTTYYNPSLESRLSLSVDTSKNQFSLKLSSVTAADTAIYYCARSSLSVSEAFDVWGQGTMVTVSS VL: DIQMTQSPSSLSASVGDRITITCRGSQNIGSFLSWYQQRPGKAPKLLIFGAYNLQGGVPSRFSGSGSGTDFTLTISSLQPEDFATYFCQQSYSTPPITFGQGTRLEIK
5.8 min

Could you report t1/2 for every entry in the following list?
1. H1H20375N (antibody, human IgG1, V domains shown, here with human IgG1 Fc (H1H)) VH: QLQLQESGPGLVKPSETLSFTCTVSGGSISSNYYYWGWVRQSPGKGLEWIGSIYHTGNAYDNPSLKSRVTISVDTSKNQFSLNLNSVTAADTAIYYCARHHSSSSWWYFDVWGRGTLVIVSS VL: EIVLTQSPDTLSLSPGERATLSCRASQTVSNSHLAWYQQKPGQAPRLLIYGTSSRATGIPDRFSGSGSGTDFSLTIIRLEPDDFAVYFCQQHESSPPTFGQGAKLEIK
2. H1H19274P (antibody, human IgG1, V domains shown) VH: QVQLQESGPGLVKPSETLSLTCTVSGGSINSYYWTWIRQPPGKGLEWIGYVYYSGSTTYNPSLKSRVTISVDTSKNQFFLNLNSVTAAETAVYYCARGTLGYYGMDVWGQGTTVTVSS VL: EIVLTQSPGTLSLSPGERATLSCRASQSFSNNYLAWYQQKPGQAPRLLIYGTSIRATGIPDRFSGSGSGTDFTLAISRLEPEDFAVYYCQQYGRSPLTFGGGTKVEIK
3. H1H20373N (antibody, human IgG1, V domains shown, here with human IgG1 Fc (H1H)) VH: EVQLLESGGGLVQPGGSLRLSCAASGFTFSSYAMSWVRQAPGKGLEWVSDISGSGLSTYYADSVKGRFAISRDNSKNMLYLQMNRLRAEDTAVYYCAKEPSHWNGEAFDIWGQGTMVTVSS VL: DIQMTQSPSSVSASVGDRVTITCRASQDISSWLAWYQQKPGKAPKLLIYTTANLQSGVPSRFSGSGSGTDFTLTISSLQSEDFATYYCQQANSFPFTFGSGTKVDIK
4. H1H19307P (antibody, human IgG1, V domains shown) VH: EVQLVESGGGLVQPGGSLRLACAASGFTFSDYYMDWVRQVPGKGLEWVGRSRDKANSFTTEYVASVKGRFTISREDSKNSVYLQMNSLKTEDTAVYYCARTNYDFSLDVWGQGTTVTVSS VL: DIQMTQSPSSLSASVGDRVTITCRASQDINNYLAWFQQKPGNAPKSLIYAASSLQSGVPSKFSGSGSGTDFTLTISSLQPEDFATYYCQQYSTYPITFGQGTRLEIK

Response:
1. 4.1 min
2. 15.2 min
3. 28.8 min
4. 40.6 min

Batch request: t1/2 per item, same order as input.
1. H1H19280P (antibody, human IgG1, V domains shown) VH: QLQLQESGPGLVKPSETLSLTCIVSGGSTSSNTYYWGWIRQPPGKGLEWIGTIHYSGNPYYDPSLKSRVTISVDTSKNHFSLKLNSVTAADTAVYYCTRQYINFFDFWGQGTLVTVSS VL: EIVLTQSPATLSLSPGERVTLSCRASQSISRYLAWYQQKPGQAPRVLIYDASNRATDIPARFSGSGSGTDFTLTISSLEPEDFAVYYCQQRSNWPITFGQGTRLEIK
2. H1H19294P (antibody, human IgG1, V domains shown) VH: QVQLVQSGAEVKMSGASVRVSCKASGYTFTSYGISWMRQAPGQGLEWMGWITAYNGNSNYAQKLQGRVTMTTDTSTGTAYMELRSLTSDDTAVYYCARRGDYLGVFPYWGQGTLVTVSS VL: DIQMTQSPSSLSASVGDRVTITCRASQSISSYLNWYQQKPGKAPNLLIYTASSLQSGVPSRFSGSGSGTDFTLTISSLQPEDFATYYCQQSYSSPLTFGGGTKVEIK

Response:
["33.4 min", "35.7 min"]
